Recorded values, source BigSolDB 2.1.

Conditions: in isopropanol, 283.15 K
reported.endpoint: solubility (mole fraction)
Answer as a number with no unit attached.

Prompt line: Can you look up the measured solubility (mole fraction) of "c1cc(-n2c3ccccc3c3ccccc32)cc(-n2c3ccccc3c3ccccc32)c1" for me?
Response line: 4.55e-05

* * *

Details: in methanol, 293.15 K
reported.endpoint: solubility (mole fraction)
Answer as a number with no unit attached.

Prompt line: Can you look up the measured solubility (mole fraction) of "c1cc(-n2c3ccccc3c3ccccc32)cc(-n2c3ccccc3c3ccccc32)c1" for me?
Response line: 6.14e-05

* * *

Conditions: in toluene, 313.15 K
reported.endpoint: solubility (mole fraction)
Answer as a number with no unit attached.

Prompt line: Can you look up the measured solubility (mole fraction) of "c1cc(-n2c3ccccc3c3ccccc32)cc(-n2c3ccccc3c3ccccc32)c1" for me?
Response line: 0.0445

* * *

Conditions: in ethanol, 313.15 K
reported.endpoint: solubility (mole fraction)
Answer as a number with no unit attached.

Prompt line: Can you look up the measured solubility (mole fraction) of "c1cc(-n2c3ccccc3c3ccccc32)cc(-n2c3ccccc3c3ccccc32)c1" for me?
Response line: 0.00109

* * *

Settings: in THF, 283.15 K
reported.endpoint: solubility (mole fraction)
Answer as a number with no unit attached.

Prompt line: Can you look up the measured solubility (mole fraction) of "c1cc(-n2c3ccccc3c3ccccc32)cc(-n2c3ccccc3c3ccccc32)c1" for me?
Response line: 0.0507

* * *

Conditions: in n-butanol, 283.15 K
reported.endpoint: solubility (mole fraction)

Prompt line: Can you look up the measured solubility (mole fraction) of "c1cc(-n2c3ccccc3c3ccccc32)cc(-n2c3ccccc3c3ccccc32)c1" for me?
Response line: 0.000122

* * *

Settings: in NMP, 283.15 K
reported.endpoint: solubility (mole fraction)
Answer as a number with no unit attached.

Prompt line: Can you look up the measured solubility (mole fraction) of "c1cc(-n2c3ccccc3c3ccccc32)cc(-n2c3ccccc3c3ccccc32)c1" for me?
Response line: 0.062

* * *

Conditions: in acetonitrile, 303.15 K
reported.endpoint: solubility (mole fraction)
Answer as a number with no unit attached.

Prompt line: Can you look up the measured solubility (mole fraction) of "c1cc(-n2c3ccccc3c3ccccc32)cc(-n2c3ccccc3c3ccccc32)c1" for me?
Response line: 0.000363

* * *

Settings: in ethyl acetate, 293.15 K
reported.endpoint: solubility (mole fraction)
Answer as a number with no unit attached.

Prompt line: Can you look up the measured solubility (mole fraction) of "c1cc(-n2c3ccccc3c3ccccc32)cc(-n2c3ccccc3c3ccccc32)c1" for me?
Response line: 0.00599

* * *

Conditions: in dichloromethane, 303.15 K
reported.endpoint: solubility (mole fraction)
Answer as a number with no unit attached.

Prompt line: Can you look up the measured solubility (mole fraction) of "c1cc(-n2c3ccccc3c3ccccc32)cc(-n2c3ccccc3c3ccccc32)c1" for me?
Response line: 0.139

* * *

Settings: in DMSO, 303.15 K
reported.endpoint: solubility (mole fraction)
Answer as a number with no unit attached.

Prompt line: Can you look up the measured solubility (mole fraction) of "c1cc(-n2c3ccccc3c3ccccc32)cc(-n2c3ccccc3c3ccccc32)c1" for me?
Response line: 0.00443

* * *

Settings: in acetonitrile, 313.15 K
reported.endpoint: solubility (mole fraction)

Prompt line: Can you look up the measured solubility (mole fraction) of "c1cc(-n2c3ccccc3c3ccccc32)cc(-n2c3ccccc3c3ccccc32)c1" for me?
Response line: 0.000483
